Hello, the source for this data is the supplement of paper PMC11061612, in case you need it.

Assign Bliss excess to each entry below.
# Tested on: TYK-nu (Ovarian Carcinoma)
# experiment-summary: Bliss excess, mean over the matrix (fraction); higher = more synergy;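 further: after 72 h of two-drug dosing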
One number for each entry.

The cases that follow already have their Bliss excess on record.
>  <compound>
COc1nnc2ccc(N3CCC(c4ccc(OCCN5CCN(C)C(=O)[C@H]5C)cc4)CC3)nn12 [AZD5153] + Cc1c2c(nn1C)CSCc1cc(n(C)n1)CSc1cc(c3ccccc3c1)OCCCc1c(C(=O)O)n(C)c3c-2c(Cl)ccc13 [AZD5991] (first compound max 1 µM, 7x7, partner max 1 µM)

>  <experimental-system>
TYK-nu (Ovarian Carcinoma)

>  <Bliss excess>
-0.0363

$$$$
>  <compound>
COc1nnc2ccc(N3CCC(c4ccc(OCCN5CCN(C)C(=O)[C@H]5C)cc4)CC3)nn12 [AZD5153] + C[C@@H]1COCCN1C2=NC(=NC(=C2)C3(CC3)[S@](=N)(=O)C)C4=C5C=CNC5=NC=C4 [AZD6738] (first compound max 1 µM, 7x7, partner max 10 µM)

>  <experimental-system>
TYK-nu (Ovarian Carcinoma)

>  <Bliss excess>
-0.0386

$$$$
>  <compound>
COc1nnc2ccc(N3CCC(c4ccc(OCCN5CCN(C)C(=O)[C@H]5C)cc4)CC3)nn12 [AZD5153] + C=CCn1c(=O)c2cnc(Nc3ccc(N4CCN(C)CC4)cc3)nc2n1-c1cccc(C(C)(C)O)n1 [AZD1775] (first compound max 1 µM, partner max 1 µM)

>  <experimental-system>
TYK-nu (Ovarian Carcinoma)

>  <Bliss excess>
-0.04

$$$$
>  <compound>
COc1cc2ncnc(Nc3ccc(F)c(Cl)c3)c2cc1OCCCN1CCOCC1 [Gefitinib] + CC(C)n1c(=O)n(C)c2cnc3cc(F)c(-c4ccc(OCCCN5CCCCC5)nc4)cc3c21 [AZD1390] (first compound max 10 µM, 7x7, partner max 0.3 µM)

>  <experimental-system>
TYK-nu (Ovarian Carcinoma)

>  <Bliss excess>
-0.0851

$$$$
>  <compound>
CN(C)CCCOc1ccc(-c2ccc3ncc4c(c3c2)n(C2CCOCC2)c(=O)n4C)cn1 [AZD0156] + C[C@@H]1COCCN1C2=NC(=NC(=C2)C3(CC3)[S@](=N)(=O)C)C4=C5C=CNC5=NC=C4 [AZD6738] (first compound max 1 µM, 7x7, partner max 10 µM)

>  <experimental-system>
TYK-nu (Ovarian Carcinoma)

>  <Bliss excess>
-0.0143

$$$$
>  <compound>
NC1(C(=O)N[C@@H](CCO)c2ccc(Cl)cc2)CCN(c2ncnc3[nH]ccc23)CC1 [Capivasertib] + Cn1cnc2c(F)c(Nc3ccc(Br)cc3Cl)c(C(=O)NOCCO)cc21 [Selumetinib] (first compound max 10 µM, 7x7, partner max 10 µM)

>  <experimental-system>
TYK-nu (Ovarian Carcinoma)

>  <Bliss excess>
0.0219

$$$$

What the record says about Cc1cc2ncnn2cc1Nc1ncc2c(n1)n(C1CCOCC1)c(=O)n2C [AZD7648] + O=C(c1cc(Cc2n[nH]c(=O)c3ccccc23)ccc1F)N1CCN(C(=O)C2CC2)CC1 [Olaparib] (first compound max 10 µM, 7x7, partner max 10 µM) : Bliss excess is -0.0819

###

# Test system: EFM-192A (Breast Carcinoma)
# experiment-summary: Bliss excess, mean over the matrix (fraction); higher = more synergy
Values of Bliss excess greater than or equal to -0.03 map to T; values below map to F.

>  <compound>
Cc1c2c(nn1C)CSCc1cc(n(C)n1)CSc1cc(c3ccccc3c1)OCCCc1c(C(=O)O)n(C)c3c-2c(Cl)ccc13 [AZD5991] + C1CN(CCC1(C(=O)N[C@@H](CCO)C2=CC=C(C=C2)Cl)N)C3=NC=NC4=C3C=CN4 [Capivasertib] (first compound max 1 µM, 7x7, partner max 3 µM)

>  <category-label>
T

$$$$
>  <compound>
CN(CCO)CC[C@H](CSc1ccccc1)Nc1ccc(S(=O)(=O)NC(=O)c2ccc(N3CCC([C@@H](O)c4ccccc4-c4ccc(Cl)cc4)CC3)cc2)cc1S(=O)(=O)C(F)(F)F [AZD4320] + C1CN(CCC1(C(=O)N[C@@H](CCO)C2=CC=C(C=C2)Cl)N)C3=NC=NC4=C3C=CN4 [Capivasertib] (first compound max 1 µM, 7x7, partner max 3 µM)

>  <category-label>
T

$$$$
>  <compound>
COc1cccc(OCCCN)c1-c1cc(Nc2cnc(C#N)cn2)n[nH]1 [Prexasertib] + O=C(c1cc(Cc2n[nH]c(=O)c3ccccc23)ccc1F)N1CCN(C(=O)C2CC2)CC1 [Olaparib] (first compound max 1 µM, 7x7, partner max 10 µM)

>  <category-label>
F

$$$$
>  <compound>
CN(C)CCCOc1ccc(-c2ccc3ncc4c(c3c2)n(C2CCOCC2)c(=O)n4C)cn1 [AZD0156] + CCN(CCO)CCCOc1ccc2c(Nc3cc(CC(=O)Nc4cccc(F)c4)[nH]n3)ncnc2c1 [AZD2811] (first compound max 1 µM, 7x7, partner max 1 µM)

>  <category-label>
T

$$$$

Test whether the compound CC1(C)CCC(CN2CCN(c3ccc(C(=O)NS(=O)(=O)c4ccc(NCC5CCOCC5)c([N+](=O)[O-])c4)c(Oc4cnc5[nH]ccc5c4)c3)CC2)=C(c2ccc(Cl)cc2)C1 [Venetoclax] + C[C@@H](Nc1cc(F)cc(F)c1)c1cc(C(=O)N(C)C)cc2c(=O)cc(N3CCOCC3)oc12 [AZD8186] (first compound max 1 µM, 7x7, partner max 3 µM) records Bliss excess of -0.03 or higher. F

Check the entry C[C@@H](c1ccc2nccn2c1)n1nnc2ncc(-c3cnn(C)c3)nc21 [Savolitinib] + CC1(C)CCC(CN2CCN(c3ccc(C(=O)NS(=O)(=O)c4ccc(NCC5CCOCC5)c([N+](=O)[O-])c4)c(Oc4cnc5[nH]ccc5c4)c3)CC2)=C(c2ccc(Cl)cc2)C1 [Venetoclax] (first compound max 1 µM, 7x7, partner max 1 µM) : does Bliss excess equal or exceed -0.03? F

Record Cn1cnc2c(F)c(Nc3ccc(Br)cc3Cl)c(C(=O)NOCCO)cc21 [Selumetinib] + C[C@@H]1COCCN1C2=NC(=NC(=C2)C3(CC3)[S@](=N)(=O)C)C4=C5C=CNC5=NC=C4 [AZD6738] (first compound max 10 µM, 7x7, partner max 10 µM) ; criterion: Bliss excess no lower than -0.03. Met? F
